# System: SARS-CoV-2
# Condition Set: 10 µM
Assay Endpoint: % Inh. (% Inhibition of SARS-CoV-2) (%)
Give a bare numeral; the unit % is implied.

# count of solved cases: 5
Cc1ncc(-c2ccnc(Nc3ccc(S(C)(=O)=O)cc3)n2)n1C(C)C [AZD5438] = 67.2
Cc1ccc([N+](=O)[O-])cc1S(=O)(=O)N(C)/N=C/c1cnc2ccc(Br)cn12 [PIK-75] = 87.6
O=C1OC2(c3cc(I)c(O)c(I)c3Oc3c2cc(I)c(O)c3I)c2c(Cl)c(Cl)c(Cl)c(Cl)c21 [rose-bengal-lactone] = 57.6
CCCCCCCC/C=C/CCCCCCCC(=O)OC[C@H]1O[C@@H](n2ccc(N)nc2=O)C(F)(F)[C@@H]1O [Gemcitabine (elaidate)] = 111.3
c1ccc(C(NCc2cccnc2)(c2ccccc2)c2ccccc2)cc1 [UCL-2077] = 70.7

Given the compound CN1c2cc3c(cc2N=C(c2ccc(C(=O)O)cc2)c2ccccc21)C(C)(C)CCC3(C)C [LE-135] , what is its reported % Inh. (% Inhibition of SARS-CoV-2)?
105.5

Field entry: CCCCCCc1ccc(O)cc1O.Nc1c2ccccc2nc2ccccc12 [ACRISORCIN]
61.7

###

# Method Description: Compound cytotoxicity against CaCo-2 cells at 48 hours
# Assay type: cell-based, Human
# Condition Set: human, CaCo-2 cells; Table 5, further results of Examples 1 and 2; mean ± spread
Structures can show the parent of a compound that is named as a salt.
Assay Endpoint: CC50 at 48 h (µM)
Give a bare numeral; the unit µM is implied.

# count of solved cases: 3
CO[C@H]1CC[C@H](N2C(=O)CNc3ncc(-c4ccc(C(C)(C)O)nc4)nc32)CC1 = 9.49
OC(c1cc(C(F)(F)F)nc2c(C(F)(F)F)cccc12)C1CCCCN1 (stereo not shown) [MEFLOQUINE HYDROCHLORIDE] = 33
CCCCCCCCN=c1ccn(CCCCCCCCCCn2ccc(=NCCCCCCCC)cc2)cc1 [Octenidine Dihydrochloride] = 2.4

From here, focus on the item given below.
Given the compound CC(C)c1cc(C(C)C)c(CC(=O)NS(=O)(=O)Oc2c(C(C)C)cccc2C(C)C)c(C(C)C)c1 , what is its reported CC50 at 48 h?
13.7

###

# System: SARS-CoV-2
# Condition Set: 10 µM
The reader will find reported % Inh. (% Inhibition of SARS-CoV-2) values listed item by item below.
Give a bare numeral; the unit % is implied.

# count of solved cases: 5
Nc1ccc2ncnc(NCCc3ccc(Oc4ccccc4)cc3)c2c1 [QNZ (EVP4593)] = 95.8
Cc1cccc(CC(=O)N2CCc3c2ccc(-c2cn(C)c4ncnc(N)c24)c3F)n1 = 95.0
c1cc2c(cc1C1CCCCC1)c1c3n2CCNC3CCC1 (centres unmarked) = 75.2
COc1ccc2nc3cc(Cl)ccc3c(Nc3cc(CN4CCCC4)c(O)c(CN4CCCC4)c3)c2n1.O=P(O)(O)O.O=P(O)(O)O.O=P(O)(O)O.O=P(O)(O)O [PYRONARIDINE TETRAPHOSPHATE] = 80.6
CCCCN1C[C@H](O)[C@@H](O)[C@H](O)[C@H]1CO = 64.4

Request: % Inh. (% Inhibition of SARS-CoV-2), test system SARS-CoV-2, entry COc1cc(Br)c(Nc2nc(-c3c(C)nc4ncccn34)cs2)c(Br)c1
103.6

Field entry: CC(C)C(C(=O)Nc1nccs1)c1ccc(Cl)cc1 (centres unmarked)
87.1

Field entry: FC(F)(F)c1cc(CO[C@H]2CCCN[C@H]2c2ccccc2)cc(C(F)(F)F)c1
53.9
